# Test system: THRa:RXRa (NR concentration 90 nM, RXRa partner concentration 90 nM)
# test-method-notes: PBM binding z-score (relative to random genomic background probes); higher = stronger binding; sequences stand for … in GC…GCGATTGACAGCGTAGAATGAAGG
Each entry below carries its reported PBM binding z-score.
measured-endpoint: PBM binding z-score

{"seq": "AGTCAAAGTTCACTAGGTAAGGTAAGATTCAGCT", "measured-endpoint": "PBM binding z-score", "reported": 2.51}
{"seq": "AGTCAAAGTGCAGGACGAGGTAACGTAAAGCACG", "measured-endpoint": "PBM binding z-score", "reported": 2.23}
{"seq": "ACTAGCAGGCCAAGTTTGGGTTACTCAAACAAAG", "measured-endpoint": "PBM binding z-score", "reported": 0.547}
{"seq": "ATACCAAGGTGATCGTGAGGGCGTTGATACTAAC", "measured-endpoint": "PBM binding z-score", "reported": 2.16}
{"seq": "CCTTACGGGTTAAGGTTATAGCACGGGTGGTACG", "measured-endpoint": "PBM binding z-score", "reported": 2.64}
{"seq": "GCGACTGGGGCAAAGCAGTTTACCATAAGGTTGG", "measured-endpoint": "PBM binding z-score", "reported": 0.718}
{"seq": "GCTAGTTGGTCAGTAAAAGGCCACACACCGGTCG", "measured-endpoint": "PBM binding z-score", "reported": 0.0278}
{"seq": "TGAATGAGGTTAATGATCAGGGAACGTGGCGTCG", "measured-endpoint": "PBM binding z-score", "reported": 1.97}
{"seq": "CGTCCAAGATCAAGGTCAGTGAAAGAGACTCGAA", "measured-endpoint": "PBM binding z-score", "reported": 2.86}
{"seq": "GCTGCTAGGTCAGCTTGGTCAGCTAACGGGTACG", "measured-endpoint": "PBM binding z-score", "reported": 1.73}
{"seq": "CCAACTGGGCCAAGGTCATTGATCAGTCAAAGCA", "measured-endpoint": "PBM binding z-score", "reported": 3.45}
{"seq": "AGTCAAAGTTCAGGACGAGGGAACGTAAAGCACG", "measured-endpoint": "PBM binding z-score", "reported": 2.44}
{"seq": "AGTCAAAGTTCACTGGGTAACGTAAGATTCAGCT", "measured-endpoint": "PBM binding z-score", "reported": 1.92}
{"seq": "CGAACTAGGACAGAACAGGACAGTGAAGGATGAT", "measured-endpoint": "PBM binding z-score", "reported": 0.492}
{"seq": "ACTATTAGTTGAGACGAGCGCAACCGATAGGTTG", "measured-endpoint": "PBM binding z-score", "reported": -0.381}
{"seq": "CGAACTAGGTCTTTGACAGGACAGTGAATAGTAA", "measured-endpoint": "PBM binding z-score", "reported": 0.309}
{"seq": "CCTTACGCGTCAAGGTTATAGCACGGGTGGTACG", "measured-endpoint": "PBM binding z-score", "reported": 1.5}
{"seq": "ACTCGGAGGACAAAGGTCCGAGCTACGCCAGTGA", "measured-endpoint": "PBM binding z-score", "reported": 0.646}
{"seq": "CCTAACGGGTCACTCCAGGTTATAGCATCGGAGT", "measured-endpoint": "PBM binding z-score", "reported": 4.85}
{"seq": "GGAACGAGCGCATTCGAGTTGATAGCATGGCGAT", "measured-endpoint": "PBM binding z-score", "reported": -0.857}
{"seq": "CGTCCAAGGTCATAGGTCAGTGAAGAGATGACGG", "measured-endpoint": "PBM binding z-score", "reported": 4.31}
{"seq": "ATCGAAAGCTCGAGGTGAGTATAGAGAAAGGGAA", "measured-endpoint": "PBM binding z-score", "reported": 0.963}
{"seq": "CCGACTGGGGCAGAAAGGTTACCAAACCATCCGG", "measured-endpoint": "PBM binding z-score", "reported": 0.905}
{"seq": "ATATGTAGGTTATCAGGTCATTCAGTTTGCGCAT", "measured-endpoint": "PBM binding z-score", "reported": 3.72}
{"seq": "TGTCAAGGTTCAAAGGTAACGTAAGTATCCACAC", "measured-endpoint": "PBM binding z-score", "reported": 3.12}
{"seq": "CCTTCTGGGCCAAAAAGGTCATTGATGCCGATAA", "measured-endpoint": "PBM binding z-score", "reported": 2.87}
{"seq": "CTCGAAAGGTCGGTTGAGGTGGGTATACGGATAA", "measured-endpoint": "PBM binding z-score", "reported": 4.1}
{"seq": "GGAACGAGGGCAAAGTTAATAGCATCTGTCGACG", "measured-endpoint": "PBM binding z-score", "reported": 1.27}
{"seq": "CCTACTGGGCCATCAGGTCGTTGATATCAACGTT", "measured-endpoint": "PBM binding z-score", "reported": 1.42}
{"seq": "CGTCCAAGGTCAGCAGGTCGGTGAAAGCGACGTG", "measured-endpoint": "PBM binding z-score", "reported": 3.57}
{"seq": "ATATGTATGTTACATCCGGGTCATTCAGGCTATG", "measured-endpoint": "PBM binding z-score", "reported": 3.04}
{"seq": "ATCTCTAGGTGAAGTTCAGTGAAAGATCGATAGA", "measured-endpoint": "PBM binding z-score", "reported": 1.19}
{"seq": "ATATTTAGGTTATCGGGTCATTCAGTTTGCGCAT", "measured-endpoint": "PBM binding z-score", "reported": 3.62}
{"seq": "CCTACTGGGCCATGGTCATTGATCAGTCAAAGCA", "measured-endpoint": "PBM binding z-score", "reported": 0.0106}
{"seq": "TTACCAAGGTGAGCTGAGGTCGTAGATCCAACTC", "measured-endpoint": "PBM binding z-score", "reported": 4.78}
{"seq": "CAAACTAGGTCACCGGTAGGTCAAAGTCCGCATG", "measured-endpoint": "PBM binding z-score", "reported": 4.3}
{"seq": "TGAATGAGGATAAAGATCAGGGAACGTGGCGTCG", "measured-endpoint": "PBM binding z-score", "reported": 1.33}
{"seq": "TCGAGTAGGTTAGGTGCATTCAGAATGGCGTCGA", "measured-endpoint": "PBM binding z-score", "reported": -0.142}
{"seq": "TGGCCTAGGTCAGATCGGGCCAGTATACGCTATA", "measured-endpoint": "PBM binding z-score", "reported": 3.53}
{"seq": "ACTAGTTGGTCAGCTGAGTTCACACACAATTCGG", "measured-endpoint": "PBM binding z-score", "reported": 3.33}
{"seq": "AGAATGAGGTTTAGATCAGGGAAACAGAATACAT", "measured-endpoint": "PBM binding z-score", "reported": 0.678}
{"seq": "CCGACTGGGGCAAGGTTCCCATAACGCACAGCCA", "measured-endpoint": "PBM binding z-score", "reported": -0.0449}
{"seq": "CTTTACGGGTCACGAGGTTATAGCACGACGAGCG", "measured-endpoint": "PBM binding z-score", "reported": 3.92}
{"seq": "TCGAGTAGGTTAGTCGGGGCATTCTGCCAACATA", "measured-endpoint": "PBM binding z-score", "reported": 0.983}
{"seq": "CCTATTAGTTGAACATAAGGGCAACCGAAGCTCG", "measured-endpoint": "PBM binding z-score", "reported": 2.06}
{"seq": "TTACCAAGGTGGAAGGTCGTTGATGCACGCCTTG", "measured-endpoint": "PBM binding z-score", "reported": 0.674}
{"seq": "TCTAGTTGGTGAAAGGTCACACACTCGAAATGCG", "measured-endpoint": "PBM binding z-score", "reported": 3.97}
{"seq": "CGTCCAAGGACAAGGTCAGTGAAAGAGACTCGAA", "measured-endpoint": "PBM binding z-score", "reported": 3.63}
{"seq": "AGAATGAGGTTATACATAGATCAGGGAAGAAAGT", "measured-endpoint": "PBM binding z-score", "reported": 2.19}
{"seq": "TCTTGTAGATCAACAGGAGGATAAGAAAGATCGA", "measured-endpoint": "PBM binding z-score", "reported": 0.177}
{"seq": "AGAATGACGTTAAGATCAGGGAAACAGAATACAT", "measured-endpoint": "PBM binding z-score", "reported": -0.0731}

Entry source: the supplement of paper PMC6555819
